System: RXF 393 renal
Assay: NCI tumour cell line growth inhibition, 48 h
Catalogue of molecules with associated TGI

Example molecules with recorded TGI:
>  <molecule>
CN(C)P(=O)(Oc1occc1C(O)Cc1ccccc1)N(C)C (stereo not drawn)

>  <experimental.readout>
TGI

>  <observed>
> 100 µM

$$$$
>  <molecule>
Clc1ccc(N=CNc2ccc(-c3nc4ccccc4o3)cc2)cc1

>  <experimental.readout>
TGI

>  <observed>
80.6 µM

$$$$
>  <molecule>
CCCCC/C(C=O)=C\c1ccccc1

>  <experimental.readout>
TGI

>  <observed>
> 100 µM

$$$$
>  <molecule>
Oc1ccc(Br)cc1C=Nc1ccc(N=Cc2cc(Br)ccc2O)cc1

>  <experimental.readout>
TGI

>  <observed>
> 100 µM

$$$$

Task: State its TGI: CC1=C(c2cc(C(=O)Nc3ccc(Cl)cc3)nc(=S)[nH]2)Sc2ccccc2N1
Result: > 100 µM

Task: State its TGI: Cc1cc2c(nn1)-c1ccccc1C2=O
Result: > 10 µM

Task: State its TGI: CC1=CC(=O)CC2(C)CCC(C(C)CC(=O)CC(C)C)CC12 (stereo not drawn)
Result: > 100 µM

Task: State its TGI: COC(C(=O)[C@@H](O)[C@@H](C)O)[C@@H]1Cc2cc3cc(O[C@H]4C[C@@H](O[C@H]5C[C@@H](O)[C@H](O)C(C)O5)[C@H](O)C(C)O4)c(C)c(O)c3c(O)c2C(=O)[C@H]1O[C@H]1C[C@@H](O[C@H]2C[C@@H](O[C@H]3C[C@@H](O)[C@H](OC)C(C)O3)[C@@H](O)C(C)O2)[C@H](O)C(C)O1 (stereo partly drawn)
Result: 0.139 µM

Task: State its TGI: O=C(NO)c1ccc(CN(c2cnccn2)c2cnccn2)cc1
Result: 25.1 µM

---

Tested on: NCI-H522 lung
Assay: NCI tumour cell line growth inhibition, 48 h
Catalogue of compounds with associated TGI
Use µM as the unit, but write only the number.

>  <structure.as.smiles>
O=C(CSC(c1ccccc1)c1ccccc1)N/N=C/c1ccco1

>  <TGI (µM)>
4.49

$$$$

Task: Enter recorded TGI with NCI-H522 lung for CC1=C(C(=O)Nc2ccccc2)C(c2ccc(C3C(C(=O)Nc4ccccc4)=C(C)NC(C)=C3C(=O)Nc3ccccc3)cc2)C(C(=O)Nc2ccccc2)=C(C)N1 here.
Result: 3.14

---

Test system: NCI-H522 lung
Assay: NCI tumour cell line growth inhibition, 48 h
experimental.readout: TGI

>  <compound>
O=C(c1ccccc1)N1C(=S)N=C(Nc2ccccc2)C1=Nc1ccccc1

>  <TGI>
> 100 µM

$$$$
>  <compound>
C/C(=N\NC(=S)N1CC2CCC(CC2)C1)c1ccccn1

>  <TGI>
1.27 µM

$$$$
>  <compound>
O=C(Nc1ccc(Cl)c(Cl)c1)Nc1ccccc1O

>  <TGI>
15.5 µM

$$$$

Let us examine a further case.
Task: Enter recorded TGI with NCI-H522 lung for CCCCN(CCCC)C(=C(C(Cl)=C(Cl)Cl)[N+](=O)[O-])N(CCCC)CCCC here.
Result: > 100 µM

---

Test system: HS 578T breast
Assay: NCI tumour cell line growth inhibition, 48 h
Catalogue of compounds with associated TGI

Example compounds with recorded TGI:
>  <compound>
COC(=O)CCC1=C(CC(=O)OC)C(C)=N/C1=C\c1[nH]c(-c2ccc[nH]2)cc1OC

>  <TGI>
18.7 µM

$$$$
>  <compound>
Cc1ccc(-c2c(C#N)c(-c3ccc([N+](=O)[O-])cc3)c(C#N)c(=O)n2NS(=O)(=O)c2ccccc2)cc1

>  <TGI>
33.1 µM

$$$$
>  <compound>
CCOC(=O)[C@@H]1ON2O[C@@H](OC3CCCC3(c3ccccc3)c3ccccc3)C[C@H]3OC(=O)[C@@H]1C32 (some centres undefined)

>  <TGI>
> 100 µM

$$$$
>  <compound>
CCN(CC)CCNc1ccc2ncn3c4cc(OC)c(OC)c(=O)c4c(O)c1c23

>  <TGI>
29.1 µM

$$$$
>  <compound>
O=C1CCCc2cc3c(cc21)CC1(C3)Cc2ccc3c(c2C1)C(=O)CCC3 (centres undefined)

>  <TGI>
> 100 µM

$$$$
>  <compound>
CCCCC/C(C=O)=C\c1ccccc1

>  <TGI>
> 100 µM

$$$$
>  <compound>
CC(O)CC(O)(C(F)(F)F)C(F)(F)F (centres undefined)

>  <TGI>
> 10 µM

$$$$
>  <compound>
COc1ccc2c(Oc3ccc(NC(=O)c4c(C)n(CC(C)(C)O)n(-c5ccccc5)c4=O)nc3)ccnc2c1

>  <TGI>
> 100 µM

$$$$

Task: State its TGI: OCC(O)C(O)C(O)/C=N/Nc1nc(O)c(/C=C2\C=Nc3ccccc32)[nH]1 (centres undefined)
Result: > 100 µM

Task: State its TGI: CC1=C(C(=O)Nc2ccccc2)C(c2ccc(C3C(C(=O)Nc4ccccc4)=C(C)NC(C)=C3C(=O)Nc3ccccc3)cc2)C(C(=O)Nc2ccccc2)=C(C)N1
Result: 16.2 µM

Task: State its TGI: COC(=O)C1(Cc2ccc3c(c2)CCC3)Cc2ccccc2C1=O (centres undefined)
Result: 87.6 µM

---

Test system: HL-60(TB) leukemia
Test: NCI tumour cell line growth inhibition, 48 h
experimental.readout: TGI

Example molecules with recorded TGI:
>  <molecule>
COc1ccccc1N1CCN(CCCNC(=O)c2cc(Cl)c(N)c(Cl)c2)CC1

>  <observed>
55.8 µM

$$$$
>  <molecule>
OCC(O)CNc1ccnc2cc(Cl)ccc12 (stereo unspecified)

>  <observed>
> 100 µM

$$$$
>  <molecule>
O=c1c2ccccc2nc(-c2ccccc2)n1NC(=S)Nc1ccccc1

>  <observed>
> 100 µM

$$$$
>  <molecule>
C=C1C(=O)OC2/C=C(/C)C3(O)OC(C)(CC(OC(=O)C(C)C)C12)CC3OC(C)=O (stereo unspecified)

>  <observed>
> 19.7 µM

$$$$
>  <molecule>
COc1ccc(/C=C(/c2ccccc2)[N+](=O)[O-])cc1

>  <observed>
6.87 µM

$$$$

Task: State its TGI: O=C(c1ccccc1)N1C(=S)N=C(Nc2ccccc2)C1=Nc1ccccc1
Result: > 100 µM

---

Test system: DMS 273 small cell lung
Experiment: NCI tumour cell line growth inhibition, 48 h
experimental.readout: TGI (µM)
Use µM as the unit, but write only the number.

>  <compound>
CN(C)CCSc1nccc(-c2cc3ccccc3s2)n1

>  <observed>
34.1

$$$$
>  <compound>
CC(=O)OC1C2CCC1C1C2C2(Cl)C(Cl)=C(Cl)C1(Cl)C2(Cl)Cl (configuration not stated)

>  <observed>
25.4

$$$$
>  <compound>
O=C1c2cccc(NCCNCCO)c2C(=O)c2cccc(NCCNCCO)c21

>  <observed>
7.19

$$$$
>  <compound>
[F][Sn]([F])([c]1ccccc1)[c]1ccccc1

>  <observed>
5.26

$$$$

Let us examine a further case.
Task: Enter recorded TGI with DMS 273 small cell lung for CC1CN1c1c(C(=O)/C=C/c2ccc(Cl)cc2)c(-c2ccccc2)nn(C)c1=O (configuration not stated) here.
Result: 6.29

---

Test system: IGROV1 ovarian
Test: NCI tumour cell line growth inhibition, 48 h
experimental.readout: TGI (µM)
Use µM as the unit, but write only the number.

>  <compound>
CC1=C(C(=O)Nc2ccccc2)C(c2ccc(C3C(C(=O)Nc4ccccc4)=C(C)NC(C)=C3C(=O)Nc3ccccc3)cc2)C(C(=O)Nc2ccccc2)=C(C)N1

>  <study.target>
IGROV1 ovarian

>  <TGI / µM>
6.94

$$$$

Let us examine a further case.
Task: Enter recorded TGI with IGROV1 ovarian for CCOc1ccccc1NC(=O)C(C#N)C1=C(Cl)C(=O)c2ccccc2C1=O (stereo not given) here.
Result: 5.31

---

Tested on: K-562 leukemia
Experiment: NCI tumour cell line growth inhibition, 48 h
Catalogue of molecules with associated GI50

Example molecules with recorded GI50:
>  <molecule>
N.N.NCCCCCCCCCN.O=C([O-])CC(=O)[O-].O=C([O-])CC(=O)[O-].[Pt+4].[Pt+4]

>  <GI50>
> 100 µM

$$$$
>  <molecule>
[F][Sn]([F])([c]1ccccc1)[c]1ccccc1

>  <GI50>
0.702 µM

$$$$

Task: State its GI50: C[C@H]1CCC/C=C/[C@@H]2C[C@H](O)C[C@H]2[C@H](O)[C@@H](SCC(O)CO)CC(=O)O1 (stereo not given in full)
Result: 40.3 µM

Task: State its GI50: O=C(Nc1ccc(Cl)c(Cl)c1)Nc1ccccc1O
Result: 3.4 µM

Task: State its GI50: COc1ccc2c(Oc3ccc(NC(=O)c4c(C)n(CC(C)(C)O)n(-c5ccccc5)c4=O)nc3)ccnc2c1
Result: 2.77 µM

---

System: EKVX NSCLC
Assay: NCI tumour cell line growth inhibition, 48 h
Catalogue of compounds with associated TGI

Example compounds with recorded TGI:
>  <compound>
CCCCCc1ccc(S(=O)(=O)Nc2cc(-c3csc(NC(C)=O)n3)ccc2N2CCN(C)CC2)cc1

>  <study.target>
EKVX NSCLC

>  <observed>
10.7 µM

$$$$
>  <compound>
C=C1CC[C@@H](C(C)C)C[C@@H]2[C@H]([C@H](O)C[C@]2(C)O)[C@@]2(C)CC[C@@H]1O2

>  <study.target>
EKVX NSCLC

>  <observed>
55.9 µM

$$$$
>  <compound>
Cc1ccc(S(=O)(=O)NC(=O)NC2=NC(C)(C)N(c3ccc(Cl)c(Cl)c3)C(N)=N2)cc1

>  <study.target>
EKVX NSCLC

>  <observed>
> 100 µM

$$$$
>  <compound>
C=CCn1c2c(sc1=S)C(S)N=CN2 (stereo not given)

>  <study.target>
EKVX NSCLC

>  <observed>
> 100 µM

$$$$
>  <compound>
COC(=O)C1(Cc2ccc3c(c2)CCC3)Cc2ccccc2C1=O (stereo not given)

>  <study.target>
EKVX NSCLC

>  <observed>
73.7 µM

$$$$

Task: State its TGI: COC(=O)[C@H](Cc1ccccc1)NC(=O)c1ccc(CNC(=O)/C=C/c2cccc(Oc3ccccc3)c2)cc1
Result: > 100 µM

Task: State its TGI: O=C(N/N=C/c1c(Cl)cccc1Cl)c1ccc(C(F)(F)F)nc1Nc1cccc(C(F)(F)F)c1
Result: > 27.9 µM

Task: State its TGI: CC1(C)OC2CC(=O)OCC23C1CC(=O)C1(C)C3CCC2(C)C(c3ccoc3)OC(=O)C3OC321 (stereo not given)
Result: > 58 µM

Task: State its TGI: NC(=O)c1ncn2c1NC(=O)CC2
Result: > 100 µM

Task: State its TGI: CCCCN(CCCC)C(=C(C(Cl)=C(Cl)Cl)[N+](=O)[O-])N(CCCC)CCCC
Result: > 100 µM
